Recorded pIC50 values for a group of compounds are listed next.
# measured-target: human recombinant 15-PGDH (Homo sapiens, UniProt P15428)
# Sequence (P15428 1-266): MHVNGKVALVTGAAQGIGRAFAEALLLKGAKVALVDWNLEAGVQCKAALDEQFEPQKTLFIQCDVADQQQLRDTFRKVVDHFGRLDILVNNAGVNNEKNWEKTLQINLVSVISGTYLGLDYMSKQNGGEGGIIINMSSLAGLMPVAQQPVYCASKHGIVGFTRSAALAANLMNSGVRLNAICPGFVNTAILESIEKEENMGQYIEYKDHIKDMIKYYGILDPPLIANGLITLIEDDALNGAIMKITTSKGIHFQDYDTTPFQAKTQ
# protocol-description: Recombinant 15-PGDH enzymatic inhibition assay (PGDH-Lumi, NADH signal)
# test-settings: recombinant 15-PGDH; 15 min pre-incubation, 60 min reaction with PGE2 and NAD+, NADH signal
The meaning of pIC50 here: minus log10 of the concentration in molar units.

Answered cases to consult:
>  <compound>
Cn1ncc2cc(-c3ccc4cc([C@H](O)C5CCOCC5)sc4n3)cnc21 (single isomer, unassigned) [Compound B35R]

>  <meas-value>
8.96

$$$$
>  <compound>
Cn1cc2cc(-c3ncc4cc([C@]5(O)C[C@@](C)(C#N)C5)sc4n3)cnc2n1 (single isomer, unassigned) [Compound C96C]

>  <meas-value>
9.12

$$$$
>  <compound>
CN1CCC(O)(c2cc3ccc(-c4cnc5nn(C)cc5c4)nc3s2)CC1

>  <meas-value>
5.53

$$$$
>  <compound>
Cn1cc2cc(-c3ccc4cc([C@H](CO)C5CC(F)(F)C5)sc4n3)cnc2n1 (single isomer, unassigned) [Compound B80S]

>  <meas-value>
8.94

$$$$
>  <compound>
CO[C@]1(C(F)(F)F)C[C@](O)(c2cc3ccc(-c4cnc5nn(C)cc5c4)nc3s2)C1 (single isomer, unassigned) [Compound C66T]

>  <meas-value>
9.33

$$$$
>  <compound>
Cn1cc2cc(-c3ccc4cc(C(O)(C5CC5)C(F)(F)F)sc4n3)cnc2n1 (centres unmarked)

>  <meas-value>
5.90

$$$$

Look up pIC50 for this compound: COC[C@H]1C[C@](O)(c2cc3ccc(-c4cnc5nn(C)cc5c4)nc3s2)C1 (single isomer, unassigned) [Compound C58C] 9.05

Please answer likewise for Cn1cc2cc(-c3ccc4nc(C5(O)CC6(CC6)C5)sc4n3)cnc2n1 9.17

Same thing, different compound: Cn1cc2cc(-c3ccc4cc([C@]5(O)C[C@@H](OC(F)(F)F)C5)sc4n3)cnc2n1 [Compound C67C] 9.27

Try Cn1cc2cc(-c3ccc4nc([C@]5(O)C[C@@H](C(F)(F)F)C5)sc4n3)cnc2n1 [Compound C74C] next. 9.34

Same again, this time with Cc1cn2cc(-c3ccc4cc(C5(O)CC(F)(F)C5)sc4n3)cnc2n1 8.77

These entries and their values trace back to patent US20240409557A1.
